In this section we review reported deltaG values for a set of molecules.
# tested.system: Growth factor receptor-bound protein 2 (Homo sapiens) (UniProt P62993)
# Sequence (P62993 whole entry, looked up, the tested form may be a part): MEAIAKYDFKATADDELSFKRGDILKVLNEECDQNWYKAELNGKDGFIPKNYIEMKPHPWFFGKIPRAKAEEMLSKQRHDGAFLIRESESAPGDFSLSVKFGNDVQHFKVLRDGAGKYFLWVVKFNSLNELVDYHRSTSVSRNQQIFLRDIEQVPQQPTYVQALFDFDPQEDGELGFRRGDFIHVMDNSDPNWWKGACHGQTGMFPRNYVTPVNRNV
# assay.protocol: Binding affinity to Grb2-SH2 domain (53 to 163 residues) (unknown origin) expressed in Escherichia coli assessed as change in gibbs free energy by ITC analysis
recorded.metric: deltaG

* CC(=O)N[C@@H](Cc1ccc(OP(=O)(O)O)cc1)C(=O)NC1(C(=O)N[C@@H](CC(N)=O)C(=O)NCCCc2ccc(C)cc2)CCCCC1 | -10.3 kcal/mol
* CC(=O)N[C@@H](Cc1ccc(OP(=O)(O)O)cc1)C(=O)NC1(C(=O)N[C@@H](CC(N)=O)C(=O)NCCCc2cn(C)c3ccccc23)CCCCC1 | -10.4 kcal/mol
* CC(=O)N[C@@H](Cc1ccc(OP(=O)(O)O)cc1)C(=O)NC1(C(=O)N[C@@H](CC(N)=O)C(=O)NCCCn2ccc3ccccc32)CCCCC1 | -10.1 kcal/mol
* CC(=O)N[C@@H](Cc1ccc(OP(=O)(O)O)cc1)C(=O)NC1(C(=O)N[C@@H](CC(N)=O)C(=O)NCCCC2CCCCC2)CCCCC1 | -9.9 kcal/mol
* CC(=O)N[C@@H](Cc1ccc(OP(=O)(O)O)cc1)C(=O)NC1(C(=O)N[C@@H](CC(N)=O)C(=O)NCc2cn(C)c3ccccc23)CCCCC1 | -9.5 kcal/mol
* COc1ccc(CCCNC(=O)[C@H](CC(N)=O)NC(=O)C2(NC(=O)[C@H](Cc3ccc(OP(=O)(O)O)cc3)NC(C)=O)CCCCC2)cc1 | -10.5 kcal/mol

====

# tested.system: Growth factor receptor-bound protein 2 (Homo sapiens) (UniProt P62993)
# assay.protocol: Binding affinity to Grb2-SH2 domain (53 to 163 residues) (unknown origin) expressed in Escherichia coli assessed as association constant by ITC analysis
recorded.metric: Ka

• CC(=O)N[C@@H](Cc1ccc(OP(=O)(O)O)cc1)C(=O)NC1(C(=O)N[C@@H](CC(N)=O)C(=O)NCCCc2ccc(Cl)cc2)CCCCC1 = 4.7 10^7/M
• CC(=O)N[C@@H](Cc1ccc(OP(=O)(O)O)cc1)C(=O)NC1(C(=O)N[C@@H](CC(N)=O)C(=O)NCCCc2ccccc2)CCCCC1 = 2.6 10^7/M
• CC(=O)N[C@@H](Cc1ccc(OP(=O)(O)O)cc1)C(=O)NC1(C(=O)N[C@@H](CC(N)=O)C(=O)NCCCc2ccc(C)cc2)CCCCC1 = 4 10^7/M
• CC(=O)N[C@@H](Cc1ccc(OP(=O)(O)O)cc1)C(=O)NC1(C(=O)N[C@@H](CC(N)=O)C(=O)NCCCn2ccc3ccccc32)CCCCC1 = 2.7 10^7/M
• CC(=O)N[C@@H](Cc1ccc(OP(=O)(O)O)cc1)C(=O)NC1(C(=O)N[C@@H](CC(N)=O)C(=O)NCCCCc2ccccc2)CCCCC1 = 1.5 10^7/M
• CC(=O)N[C@@H](Cc1ccc(OP(=O)(O)O)cc1)C(=O)NC1(C(=O)N[C@@H](CC(N)=O)C(=O)NCCCCC(C)C)CCCCC1 = 1.7 10^7/M

====

# tested.system: Growth factor receptor-bound protein 2 (Homo sapiens) (UniProt P62993)
# assay.protocol: Binding affinity to Grb2-SH2 domain (53 to 163 residues) (unknown origin) expressed in Escherichia coli assessed as association constant by ITC analysis
Square brackets hold non-standard residues; d marks the D form. Peptide text beside a SMILES is read from it. pY = N[C@@H](Cc1ccc(OP(=O)(O)O)cc1)C(=O)O; Ac6c = NC1(C(=O)O)CCCCC1
recorded.metric: Ka

* CC(=O)N[C@@H](Cc1ccc(OP(=O)(O)O)cc1)C(=O)NC1(C(=O)N[C@@H](CC(N)=O)C(=O)NCCCc2cccc3ccccc23)CCCCC1 | 6 10^7/M
* COc1ccc(CCCNC(=O)[C@H](CC(N)=O)NC(=O)C2(NC(=O)[C@H](Cc3ccc(OP(=O)(O)O)cc3)NC(C)=O)CCCCC2)cc1 | 5 10^7/M
* CC(=O)N[C@@H](Cc1ccc(OP(=O)(O)O)cc1)C(=O)NC1(C(=O)N[C@@H](CC(N)=O)C(=O)NCCCc2c[nH]c3ccccc23)CCCCC1 | 3.5 10^7/M
* CC(=O)N[C@@H](Cc1ccc(OP(=O)(O)O)cc1)C(=O)NC1(C(=O)N[C@@H](CC(N)=O)C(=O)NCCCc2cn(C)c3ccccc23)CCCCC1 | 4.9 10^7/M
* CC(=O)N[C@@H](Cc1ccc(OP(=O)(O)O)cc1)C(=O)NC1(C(=O)N[C@@H](CC(N)=O)C(N)=O)CCCCC1 (Ac-[pY]-[Ac6c]-Asn-NH2) | 0.7 10^7/M
* CC(=O)N[C@@H](Cc1ccc(OP(=O)(O)O)cc1)C(=O)NC1(C(=O)N[C@@H](CC(N)=O)C(=O)NCCc2cn(C)c3ccccc23)CCCCC1 | 2.4 10^7/M

====

# tested.system: UniProt:P62993
# assay.protocol: Binding affinity to Grb2-SH2 domain (53 to 163 residues) (unknown origin) expressed in Escherichia coli assessed as change in gibbs free energy by ITC analysis
Square brackets hold non-standard residues; d marks the D form. Peptide text beside a SMILES is read from it. * marks the point of attachment. pY = N[C@@H](Cc1ccc(OP(=O)(O)O)cc1)C(=O)O; NHPhenethyl = c1ccc(CCN*)cc1; Ac6c = NC1(C(=O)O)CCCCC1
This listing pairs molecules with measured deltaG.
recorded.metric: deltaG (kcal/mol)

• CC(=O)N[C@@H](Cc1ccc(OP(=O)(O)O)cc1)C(=O)NC1(C(=O)N[C@@H](CC(N)=O)C(=O)NCCc2ccccc2)CCCCC1 (Ac-[pY]-[Ac6c]-Asn-NHPhenethyl) = -9.8
• CC(=O)N[C@@H](Cc1ccc(OP(=O)(O)O)cc1)C(=O)NC1(C(=O)N[C@@H](CC(N)=O)C(=O)NCCCc2ccccc2)CCCCC1 = -10.1
• CC(=O)N[C@@H](Cc1ccc(OP(=O)(O)O)cc1)C(=O)NC1(C(=O)N[C@@H](CC(N)=O)C(=O)NCCCc2c[nH]c3ccccc23)CCCCC1 = -10.3
• CC(=O)N[C@@H](Cc1ccc(OP(=O)(O)O)cc1)C(=O)NC1(C(=O)N[C@@H](CC(N)=O)C(N)=O)CCCCC1 (Ac-[pY]-[Ac6c]-Asn-NH2) = -9.3
• CC(=O)N[C@@H](Cc1ccc(OP(=O)(O)O)cc1)C(=O)NC1(C(=O)N[C@@H](CC(N)=O)C(=O)NCCCCC(C)C)CCCCC1 = -9.8
• CC(=O)N[C@@H](Cc1ccc(OP(=O)(O)O)cc1)C(=O)NC1(C(=O)N[C@@H](CC(N)=O)C(=O)NCCCC(C)C)CCCCC1 = -9.8

====

# tested.system: Growth factor receptor-bound protein 2 (Homo sapiens) (UniProt P62993)
# assay.protocol: Binding affinity to Grb2-SH2 domain (53 to 163 residues) (unknown origin) expressed in Escherichia coli assessed as change in entropy by ITC analysis
Square brackets hold non-standard residues; d marks the D form. Peptide text beside a SMILES is read from it. * marks the point of attachment. pY = N[C@@H](Cc1ccc(OP(=O)(O)O)cc1)C(=O)O; Ac6c = NC1(C(=O)O)CCCCC1; NHBn = c1ccc(CN*)cc1
Lab note: compare -TdeltaS with -1 kcal/mol, writing Fulfilled if less and Not fulfilled if equal or more.

* COc1ccc(CCCNC(=O)[C@H](CC(N)=O)NC(=O)C2(NC(=O)[C@H](Cc3ccc(OP(=O)(O)O)cc3)NC(C)=O)CCCCC2)cc1 | Fulfilled
* CC(=O)N[C@@H](Cc1ccc(OP(=O)(O)O)cc1)C(=O)NC1(C(=O)N[C@@H](CC(N)=O)C(=O)NCCCCC(C)C)CCCCC1 | Fulfilled
* CC(=O)N[C@@H](Cc1ccc(OP(=O)(O)O)cc1)C(=O)NC1(C(=O)N[C@@H](CC(N)=O)C(=O)NCCCC(C)C)CCCCC1 | Fulfilled
* CC(=O)N[C@@H](Cc1ccc(OP(=O)(O)O)cc1)C(=O)NC1(C(=O)N[C@@H](CC(N)=O)C(=O)NCCCCc2ccccc2)CCCCC1 | Fulfilled
* CC(=O)N[C@@H](Cc1ccc(OP(=O)(O)O)cc1)C(=O)NC1(C(=O)N[C@@H](CC(N)=O)C(=O)NCCCc2ccc(Cl)cc2)CCCCC1 | Fulfilled
* CC(=O)N[C@@H](Cc1ccc(OP(=O)(O)O)cc1)C(=O)NC1(C(=O)N[C@@H](CC(N)=O)C(=O)NCCCC2CCCCC2)CCCCC1 | Fulfilled
* CC(=O)N[C@@H](Cc1ccc(OP(=O)(O)O)cc1)C(=O)NC1(C(=O)N[C@@H](CC(N)=O)C(=O)NCc2cn(C)c3ccccc23)CCCCC1 | Fulfilled
* CC(=O)N[C@@H](Cc1ccc(OP(=O)(O)O)cc1)C(=O)NC1(C(=O)N[C@@H](CC(N)=O)C(=O)NCCCc2c[nH]c3ccccc23)CCCCC1 | Fulfilled
* CC(=O)N[C@@H](Cc1ccc(OP(=O)(O)O)cc1)C(=O)NC1(C(=O)N[C@@H](CC(N)=O)C(=O)NCCCc2cn(C)c3ccccc23)CCCCC1 | Not fulfilled
* CC(=O)N[C@@H](Cc1ccc(OP(=O)(O)O)cc1)C(=O)NC1(C(=O)N[C@@H](CC(N)=O)C(=O)NCc2ccccc2)CCCCC1 (Ac-[pY]-[Ac6c]-Asn-NHBn) | Fulfilled
* CC(=O)N[C@@H](Cc1ccc(OP(=O)(O)O)cc1)C(=O)NC1(C(=O)N[C@@H](CC(N)=O)C(N)=O)CCCCC1 (Ac-[pY]-[Ac6c]-Asn-NH2) | Not fulfilled

The reported measurements were obtained from ChEMBL document CHEMBL4706568.
